- assay.info: Compound was tested in vitro for cytostatic activity against Cloudman melanoma S91 cells at 0.1 uM concentration
- Assay type: functional, Mus musculus
result.type: Cell number (% of control) (%)
Hi! Could you send only the number? It should be in %, unit omitted.

Observe how each entry below is paired with its result.
Cl.NCCCN1CCN(CCCNc2c3ccccc3nc3ccccc23)CC1 : 39
Cl.c1ccc2c(NCCCN3CCN(CCCNc4c5ccccc5nc5ccccc45)CC3)c3ccccc3nc2c1 : 24
CCNCCCCCCNc1c2ccccc2nc2ccccc12.Cl.Cl : 102
COc1ccc2nc3cc(Cl)ccc3c(NCCCN3CCN(CCCNc4c5ccccc5nc5ccccc45)CC3)c2c1.Cl : 50
COc1ccc2nc3cc(Cl)ccc3c(NCCCNCCCNc3c4ccc(Cl)cc4nc4ccc(OC)cc34)c2c1.Cl : 85
COc1ccc2nc3cc(Cl)ccc3c(NCCCNCCCNc3c4ccccc4nc4ccccc34)c2c1.Cl : 66
Cl.c1ccc2c(NCCCNCCCNc3c4ccccc4nc4ccccc34)c3ccccc3nc2c1 : 103

Next up:
Form field: reported Cell number (% of control) of `COc1ccc2nc3cc(Cl)ccc3c(NCCCCCCN)c2c1.Cl.Cl.Cl`
105
